- procedure_text: Cytotoxicity against human Hu02 cells incubated for 48 hrs by MTT assay
- Assay type: cell-based
- condition_set: Hu02, 48 h
property_label: pIC50
Note on pIC50: it is the negative log10 of concentration, concentration in mol/L.

get_value(item= O=C(Nc1ccc(Cl)c(Cl)c1)Nc1nnc(Sc2ncnc3scc(-c4ccncc4)c23)s1 , readout=pIC50) returns 4.46

Notebook: CNC(=O)c1cc(Oc2ccc(NC(=O)Nc3ccc(Cl)c(C(F)(F)F)c3)cc2)ccn1 [SORAFENIB] , pIC50 read as 4.40

* * *

Would you mind telling me the reported pIC50 of each entry?
- Tested on: PC-3
- procedure_text: Antiproliferative activity against human PC-3 cells incubated for 48 hrs by MTT assay
- Type: functional, cell-based
- condition_set: PC-3, 48 h
pIC50 (log units): -log10 of the concentration in mol/L.

Given item CNC(=O)c1cc(Oc2ccc(NC(=O)Nc3ccc(Cl)c(C(F)(F)F)c3)cc2)ccn1 , the value recorded as its pIC50 is 4.81

// O=C(Nc1cccc(F)c1)Nc1nnc(Sc2ncnc3scc(-c4ccncc4)c23)s1 : pIC50 value = 5.18

What the record says about Cc1ccc(NC(=O)Nc2nnc(Sc3ncnc4scc(-c5ccncc5)c34)s2)cc1 : pIC50 is 5.68

The measured pIC50 associated with O=C(Nc1ccc(Cl)cc1)Nc1nnc(Sc2ncnc3scc(-c4ccncc4)c23)s1 reads 5.11

// pIC50 lookup, compound = Cc1cccc(NC(=O)Nc2nnc(Sc3ncnc4scc(-c5ccncc5)c34)s2)c1 , result: 5.28

Reported pIC50 of O=C(Nc1ccccc1)Nc1nnc(Sc2ncnc3scc(-c4ccncc4)c23)s1 : 5.24

pIC50 in this record for O=C(Nc1cccc(Cl)c1)Nc1nnc(Sc2ncnc3scc(-c4ccncc4)c23)s1 : 5.10
